These data points were gathered from PubChem BioAssay (EPA / NIEHS).

read-out: Vascular cell adhesion molecule 1 (VCAM1), VCAM1 (gene 7412); assay: BSK_CASM3C_VCAM1: BioMAP Diversity Plus: CASM3C Assay for Vascular cell adhesion molecule 1 (VCAM1) Biomarker Activity (AID 2283055); conditions: primary human coronary artery smooth muscle cells; actives raise or lower the signal;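 also: VCAM-1 protein level quantified by ELISA on the cells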
Active and inactive are the calls of the source. The calls were made as follows: active = hit-call score of the fitted dose curve at least 0.9, where 1 is the maximum; inactive = score below 0.9.

{"molecule": "CC(C=O)Cc1ccc(C(C)(C)C)cc1 (stereo not given)", "AC50": "27.3 µM (active)"}
{"molecule": "C=C(C)C(=O)OCCOCCOCCOCCOC(=O)C(=C)C", "AC50": "inactive"}
{"molecule": "C=C(C)C(=O)OCC(CC)(COC(=O)C(=C)C)COC(=O)C(=C)C", "AC50": "inactive"}
{"molecule": "O=C(Nc1ccc2c(O)c(N=Nc3ccc(N=Nc4ccc(S(=O)(=O)O)cc4)cc3)c(S(=O)(=O)O)cc2c1)c1ccccc1", "AC50": "inactive"}
{"molecule": "c1ccc2cc(Nc3ccc(Nc4ccc5ccccc5c4)cc3)ccc2c1", "AC50": "inactive"}

----------
assay: ATG_CRE_CIS: Attagene CIS-FACTORIAL HepG2 Assay for human cAMP Responsive Element (CRE) binding protein 3 (AID 2282926); conditions: HepG2 CRE cis-reporter, Attagene multiplexed mRNA; actives raise or lower the signal
The source made the active and inactive calls. How the source made its calls: active means hit-call score of the fitted dose curve at least 0.9, where 1 is the maximum; inactive means score below 0.9.
Possible outcomes: yes (1) for active, no (0) for inactive

{"compound": "CCCC1O[C@@H]2C[C@H]3[C@@H]4CCC5=CC(=O)C=C[C@]5(C)[C@H]4[C@@H](O)C[C@]3(C)[C@]2(C(=O)CO)O1 (some centres not stated)", "class": "no (0)"}
{"compound": "CS(C)=O", "class": "no (0)"}
{"compound": "COC(=O)c1ccc(C)cc1C1=NC(C)(C(C)C)C(=O)N1 (configuration not stated) (tested in a mixture with another compound)", "class": "no (0)"}
{"compound": "CCN(CC)C(=O)N(CC)CC", "class": "no (0)"}
{"compound": "C[C@H]1C[C@@H](O)CC(C)(C)C1", "class": "no (0)"}
{"compound": "CC1(C)C(=O)N(Cl)C(=O)N1Br", "class": "no (0)"}
{"compound": "C=Cc1ccc(C)cc1", "class": "no (0)"}
{"compound": "CC1=CC[C@@]23C[C@@H]1C(C)(C)[C@@H]2CC[C@H]3C", "class": "no (0)"}
{"compound": "COc1ccccc1[N+](=O)[O-]", "class": "no (0)"}
{"compound": "O=C(CC(=O)c1ccccc1)c1ccccc1", "class": "yes (1)"}
{"compound": "Cc1ccc(OC(=O)c2ccccc2O)cc1", "class": "no (0)"}
{"compound": "CC(=O)CC(=O)Nc1ccc(C)cc1C", "class": "no (0)"}

----------
Experiment: BSK_MyoF_SRB: Viability Assessment in the BioMAP Diversity Plus: MyoF Assay (AID 2284267);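 also: total protein by SRB absorbance in parallel cultures as cytotoxicity measure; cells assessed 24 h after compound addition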
Details: primary human lung fibroblasts
Method: BSK_MyoF is a cell-based, multiplexed-readout assay that uses lung fibroblasts, […], with measurements taken at 24 hours after chemical dosing in a microplate: 96-well plate.BSK_MyoF_SRB is an assay component measured in the BSK_MyoF assay. […] The levels of cell surface (or secreted, indicated by the prefix "s") biomarker endpoints were measured by ELISA. […] Plates were read after 6 h.
Activity calls are given as the source filed them. How the source made its calls: active means hit-call score of the fitted dose curve at least 0.9, where 1 is the maximum; inactive means score below 0.9.
Possible outcomes: active, inactive

{"compound": "CN(C)C(=O)Nc1ccc(Oc2ccc(Cl)cc2)cc1", "class": "inactive"}
{"compound": "Oc1c(Cl)cc(Cl)c(Cl)c1Cc1c(O)c(Cl)cc(Cl)c1Cl", "class": "active"}
{"compound": "CCCCCC(C=O)=Cc1ccccc1", "class": "inactive"}
{"compound": "C=C(C)C(=O)OCC(CC)(COC(=O)C(=C)C)COC(=O)C(=C)C", "class": "active"}
{"compound": "CC(=O)C1(C)CC2=C(CCCC2(C)C)CC1C (configuration not stated)", "class": "active"}
{"compound": "Clc1cc(Cl)c(-c2c(Cl)c(Cl)cc(Cl)c2Cl)cc1Cl", "class": "active"}
{"compound": "CC(C=O)Cc1ccc(C(C)(C)C)cc1 (configuration not stated)", "class": "inactive"}
{"compound": "O=C1c2ccccc2C(=O)c2c(O)ccc(O)c21", "class": "inactive"}
{"compound": "CC(C)(N=C=O)c1cccc(C(C)(C)N=C=O)c1", "class": "inactive"}
{"compound": "COc1ccc(CCN2CCC(Nc3nc4ccccc4n3Cc3ccc(F)cc3)CC2)cc1", "class": "active"}
{"compound": "CCCCCCCCCCCCCCCC(=O)OC/C=C(C)/C=C/C=C(C)/C=C/C1=C(C)CCCC1(C)C", "class": "inactive"}
{"compound": "O=C1OC[C@H](Cc2cccc(O)c2)[C@H]1Cc1cccc(O)c1", "class": "inactive"}
{"compound": "c1ccc(Oc2ccccc2)cc1", "class": "inactive"}
{"compound": "CN(C)C(=S)SC(=S)N(C)C", "class": "inactive"}
{"compound": "C[C@@H]1CCN(C(=O)[C@H](CCCN=C(N)N)NS(=O)(=O)c2cccc3c2NC[C@H](C)C3)[C@@H](C(=O)O)C1", "class": "inactive"}
{"compound": "CS(=O)(=O)c1ccc(C2=C(c3ccccc3)C(=O)OC2)cc1", "class": "inactive"}
{"compound": "CC(C)(C)CC(C)(C)c1ccc(OCCOCC[N+](C)(C)Cc2ccccc2)cc1", "class": "active"}
{"compound": "CCN(CC)C(=O)N(CC)CC", "class": "inactive"}
{"compound": "CN(c1nccc(=O)[nH]1)C1CCN(c2nc3ccccc3n2Cc2ccc(F)cc2)CC1", "class": "inactive"}
{"compound": "CCCCN(CCCC)C(=O)N(CCCC)CCCC", "class": "active"}
{"compound": "CCCCOC(=O)CCCCCCCC(=O)OCCCC", "class": "inactive"}
{"compound": "CC=Cc1ccc(OCC)c(O)c1", "class": "inactive"}

----------
target: Aryl hydrocarbon receptor (Homo sapiens) (UniProt P35869); experiment: ATG_Ahr_CIS: Attagene CIS-FACTORIAL HepG2 Assay for human Aryl Hydrocarbon Receptor (Ahr) (AID 2282930); conditions: HepG2 AhR cis-factorial reporter transcription; actives raise or lower the signal
Sequence (P35869 whole entry, looked up): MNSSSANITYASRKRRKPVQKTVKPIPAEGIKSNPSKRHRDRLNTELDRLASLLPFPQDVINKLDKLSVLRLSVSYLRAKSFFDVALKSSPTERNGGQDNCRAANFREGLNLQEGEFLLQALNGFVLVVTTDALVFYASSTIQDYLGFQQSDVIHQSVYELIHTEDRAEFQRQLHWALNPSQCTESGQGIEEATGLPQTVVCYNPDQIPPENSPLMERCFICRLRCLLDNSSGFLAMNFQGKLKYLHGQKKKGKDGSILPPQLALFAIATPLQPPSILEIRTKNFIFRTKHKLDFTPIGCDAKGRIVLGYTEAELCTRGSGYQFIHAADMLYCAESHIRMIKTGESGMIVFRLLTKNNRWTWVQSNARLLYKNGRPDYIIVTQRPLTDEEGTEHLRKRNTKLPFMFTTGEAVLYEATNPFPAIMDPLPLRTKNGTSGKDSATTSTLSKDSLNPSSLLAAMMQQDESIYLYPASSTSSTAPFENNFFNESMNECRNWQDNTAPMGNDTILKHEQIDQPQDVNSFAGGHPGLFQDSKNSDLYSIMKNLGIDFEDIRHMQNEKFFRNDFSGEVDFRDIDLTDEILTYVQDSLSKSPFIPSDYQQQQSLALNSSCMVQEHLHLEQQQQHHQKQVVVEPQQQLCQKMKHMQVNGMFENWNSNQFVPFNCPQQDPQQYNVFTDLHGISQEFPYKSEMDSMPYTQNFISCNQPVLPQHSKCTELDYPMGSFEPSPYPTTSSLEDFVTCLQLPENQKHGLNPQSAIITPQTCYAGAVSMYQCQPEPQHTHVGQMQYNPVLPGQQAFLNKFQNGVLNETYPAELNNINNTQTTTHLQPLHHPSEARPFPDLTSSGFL
The source made the active and inactive calls. The calls were made as follows: active = hit-call score of the fitted dose curve at least 0.9, where 1 is the maximum; inactive = score below 0.9.
Outcome codes: True for active, False for inactive

{"compound": "CCOC(=O)[C@@H](C)Oc1ccc(Oc2nc3ccc(Cl)cc3o2)cc1", "study_system": "Aryl hydrocarbon receptor (Homo sapiens) (UniProt P35869)", "class": "False"}
{"compound": "CCCCCCC(C)(C)S", "study_system": "Aryl hydrocarbon receptor (Homo sapiens) (UniProt P35869)", "class": "False"}
{"compound": "C=C(C)[C@@H]1CC=C(C)C(=O)C1", "study_system": "Aryl hydrocarbon receptor (Homo sapiens) (UniProt P35869)", "class": "False"}
{"compound": "CCOc1ccccc1O", "study_system": "Aryl hydrocarbon receptor (Homo sapiens) (UniProt P35869)", "class": "False"}
{"compound": "CS(C)=O", "study_system": "Aryl hydrocarbon receptor (Homo sapiens) (UniProt P35869)", "class": "False"}
{"compound": "Cc1ccc(OC(=O)c2ccccc2O)cc1", "study_system": "Aryl hydrocarbon receptor (Homo sapiens) (UniProt P35869)", "class": "False"}
{"compound": "Nc1ccc2c(O)cc(S(=O)(=O)O)cc2c1", "study_system": "Aryl hydrocarbon receptor (Homo sapiens) (UniProt P35869)", "class": "True"}
{"compound": "NCC1CCCC(CN)C1 (centres undefined)", "study_system": "Aryl hydrocarbon receptor (Homo sapiens) (UniProt P35869)", "class": "False"}
{"compound": "CCC(C)c1cc([N+](=O)[O-])cc([N+](=O)[O-])c1OC(=O)OC(C)C (centres undefined)", "study_system": "Aryl hydrocarbon receptor (Homo sapiens) (UniProt P35869)", "class": "False"}
{"compound": "C=Cc1ccc(C(C)(C)C)cc1", "study_system": "Aryl hydrocarbon receptor (Homo sapiens) (UniProt P35869)", "class": "False"}
{"compound": "O=C(CS)OCCOC(=O)CS", "study_system": "Aryl hydrocarbon receptor (Homo sapiens) (UniProt P35869)", "class": "True"}
{"compound": "CC(C)(N=C=O)c1cccc(C(C)(C)N=C=O)c1", "study_system": "Aryl hydrocarbon receptor (Homo sapiens) (UniProt P35869)", "class": "False"}
{"compound": "Brc1ccc(Br)c(Br)c1", "study_system": "Aryl hydrocarbon receptor (Homo sapiens) (UniProt P35869)", "class": "False"}
{"compound": "CCCC(=O)c1ccccc1", "study_system": "Aryl hydrocarbon receptor (Homo sapiens) (UniProt P35869)", "class": "False"}
{"compound": "CCC(Cl)C(Cl)C(Cl)CC(Cl)C(Cl)C(C)Cl (centres undefined)", "study_system": "Aryl hydrocarbon receptor (Homo sapiens) (UniProt P35869)", "class": "False"}
{"compound": "O=C1OC[C@H](Cc2cccc(O)c2)[C@H]1Cc1cccc(O)c1", "study_system": "Aryl hydrocarbon receptor (Homo sapiens) (UniProt P35869)", "class": "False"}
{"compound": "C=C(C)C(=O)OCCOCCOCCOC(=O)C(=C)C", "study_system": "Aryl hydrocarbon receptor (Homo sapiens) (UniProt P35869)", "class": "False"}
{"compound": "CC/C=C\\CCOC(=O)CC", "study_system": "Aryl hydrocarbon receptor (Homo sapiens) (UniProt P35869)", "class": "False"}
{"compound": "OCCc1ccccc1", "study_system": "Aryl hydrocarbon receptor (Homo sapiens) (UniProt P35869)", "class": "False"}
{"compound": "CN1C(=O)c2ccccc2C1=O", "study_system": "Aryl hydrocarbon receptor (Homo sapiens) (UniProt P35869)", "class": "False"}
{"compound": "CC(=O)O[C@@H]1C[C@@H]2CC[C@@]1(C)C2(C)C", "study_system": "Aryl hydrocarbon receptor (Homo sapiens) (UniProt P35869)", "class": "False"}
{"compound": "COCCOC(=O)c1ccccc1C(=O)OCCOC", "study_system": "Aryl hydrocarbon receptor (Homo sapiens) (UniProt P35869)", "class": "False"}
{"compound": "NCc1ccco1", "study_system": "Aryl hydrocarbon receptor (Homo sapiens) (UniProt P35869)", "class": "False"}
{"compound": "CCCCCCOCCOCCO", "study_system": "Aryl hydrocarbon receptor (Homo sapiens) (UniProt P35869)", "class": "False"}
{"compound": "COc1cccc(OC)c1O", "study_system": "Aryl hydrocarbon receptor (Homo sapiens) (UniProt P35869)", "class": "False"}
{"compound": "CC(C)CC(C)CC(O)CC(C)C (centres undefined)", "study_system": "Aryl hydrocarbon receptor (Homo sapiens) (UniProt P35869)", "class": "False"}
{"compound": "CCCCCCOC(=O)C(C)C", "study_system": "Aryl hydrocarbon receptor (Homo sapiens) (UniProt P35869)", "class": "False"}
{"compound": "CN(c1nccc(=O)[nH]1)C1CCN(c2nc3ccccc3n2Cc2ccc(F)cc2)CC1", "study_system": "Aryl hydrocarbon receptor (Homo sapiens) (UniProt P35869)", "class": "False"}
{"compound": "CC(=O)O[C@H]1C[C@@H]2CC[C@@]1(C)C2(C)C", "study_system": "Aryl hydrocarbon receptor (Homo sapiens) (UniProt P35869)", "class": "False"}
{"compound": "CCC(=O)OCCOc1ccccc1", "study_system": "Aryl hydrocarbon receptor (Homo sapiens) (UniProt P35869)", "class": "False"}
{"compound": "ON=C1CCCCC1", "study_system": "Aryl hydrocarbon receptor (Homo sapiens) (UniProt P35869)", "class": "False"}
{"compound": "BrCc1cccc(Oc2ccccc2)c1", "study_system": "Aryl hydrocarbon receptor (Homo sapiens) (UniProt P35869)", "class": "False"}
{"compound": "CCCC1O[C@@H]2C[C@H]3[C@@H]4CCC5=CC(=O)C=C[C@]5(C)[C@H]4[C@@H](O)C[C@]3(C)[C@]2(C(=O)CO)O1 (some centres undefined)", "study_system": "Aryl hydrocarbon receptor (Homo sapiens) (UniProt P35869)", "class": "False"}
{"compound": "COC(C)(C)CCCC(C)CC=O (centres undefined)", "study_system": "Aryl hydrocarbon receptor (Homo sapiens) (UniProt P35869)", "class": "False"}
{"compound": "C=CCCCCCCCCCC", "study_system": "Aryl hydrocarbon receptor (Homo sapiens) (UniProt P35869)", "class": "False"}
{"compound": "CCc1ncc(C)[nH]1", "study_system": "Aryl hydrocarbon receptor (Homo sapiens) (UniProt P35869)", "class": "False"}
{"compound": "Oc1ccc2cc(SSc3ccc4cc(O)ccc4c3)ccc2c1", "study_system": "Aryl hydrocarbon receptor (Homo sapiens) (UniProt P35869)", "class": "False"}
{"compound": "CCCCCCCCCCCC(=O)OC[C@@H](O)[C@H]1OC[C@H](O)[C@H]1O", "study_system": "Aryl hydrocarbon receptor (Homo sapiens) (UniProt P35869)", "class": "False"}
{"compound": "CCCCCC(C=O)=Cc1ccccc1", "study_system": "Aryl hydrocarbon receptor (Homo sapiens) (UniProt P35869)", "class": "False"}
{"compound": "COc1cc(CCC(C)=O)ccc1O", "study_system": "Aryl hydrocarbon receptor (Homo sapiens) (UniProt P35869)", "class": "False"}
{"compound": "NCCNc1cccc2ccccc12", "study_system": "Aryl hydrocarbon receptor (Homo sapiens) (UniProt P35869)", "class": "True"}
{"compound": "CN(C)C(=S)SC(=S)N(C)C", "study_system": "Aryl hydrocarbon receptor (Homo sapiens) (UniProt P35869)", "class": "False"}
{"compound": "CC1(C)CCC[C@]2(C)[C@H]3CCO[C@]3(C)CC[C@@H]12", "study_system": "Aryl hydrocarbon receptor (Homo sapiens) (UniProt P35869)", "class": "False"}
{"compound": "C=C(C#N)C(=O)OCC", "study_system": "Aryl hydrocarbon receptor (Homo sapiens) (UniProt P35869)", "class": "False"}
{"compound": "COc1ccc(CCN2CCC(Nc3nc4ccccc4n3Cc3ccc(F)cc3)CC2)cc1", "study_system": "Aryl hydrocarbon receptor (Homo sapiens) (UniProt P35869)", "class": "False"}
{"compound": "CC(Oc1cc(Cl)ccc1Cl)C(=O)O (centres undefined)", "study_system": "Aryl hydrocarbon receptor (Homo sapiens) (UniProt P35869)", "class": "False"}
{"compound": "CCCCCCC(CO)CCCC (centres undefined)", "study_system": "Aryl hydrocarbon receptor (Homo sapiens) (UniProt P35869)", "class": "True"}
{"compound": "Cc1ccc(S(=O)(=O)Oc2ccc(N=Nc3ccc(-c4ccc(N=Nc5c(O)ccc6cc(S(=O)(=O)O)cc(S(=O)(=O)O)c56)c(C)c4)cc3C)cc2)cc1", "study_system": "Aryl hydrocarbon receptor (Homo sapiens) (UniProt P35869)", "class": "True"}
{"compound": "CCCCC1(COC(=O)CCC(=O)O)C(=O)N(c2ccccc2)N(c2ccccc2)C1=O", "study_system": "Aryl hydrocarbon receptor (Homo sapiens) (UniProt P35869)", "class": "False"}
